experiment: qHTS profiling for inhibitors of Plasmodium falciparum (3D7) proliferation (AID 743322);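 also: infected erythrocytes exposed to compound for 72 h before lysis; 100% = DMSO vehicle wells and 0% = 0.29 µM artemisinin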; conditions: P. falciparum 3D7 proliferation; at 28.7 µM (top of the series) unless noted
endpoint: remaining parasite growth % (stronger effect = lower value) (%)
Return type: number; implicit unit %.

### Prompt Give recorded remaining parasite growth % (stronger effect = lower value). "CN(C)C(=O)c1ccc(S(=O)(=O)c2ccc(NC(=O)[C@@](C)(O)C(F)(F)F)c(Cl)c2)cc1"
### Response 67.3

### Prompt Specify reported remaining parasite growth % (stronger effect = lower value) for the molecule shown: Cc1c(C)c2c(c(C)c1O)CCC(C)(COc1ccc(CC3SC(=O)NC3=O)cc1)O2 (stereo not given)
### Response 93.1

### Prompt Provide one value: measured remaining parasite growth % (stronger effect = lower value) of "COCCNCCCn1c(C(=O)CF)c(-c2ccc(C)cc2)c2c(N)ncnc21"
### Response 72.8

### Prompt Answer with the recorded remaining parasite growth % (stronger effect = lower value) of COc1ccc(COc2cc3oc(=O)c4cc(C(C)O)ccc4c3cc2OC)cc1 (stereo not given) only.
### Response 75.7

### Prompt Give a short answer stating reported remaining parasite growth % (stronger effect = lower value) for "Cc1cc(-c2ccc(CC(=O)Nc3ccc(-c4cccnc4)cc3)cc2)ccn1" .
### Response 75

----------
molecular target: Hexokinase-4 (Homo sapiens) + Glucokinase regulatory protein (Homo sapiens) (UniProt P35557+Q14397); test: qHTS assay for inhibitors of recombinant human GCK-GKRP interaction: ADP-Glo assay (AID 743206); settings: ADP-Glo luminescence, 60 min, 0% = vehicle-only wells with enzyme present; series mostly up to 76.9 µM;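 also: plate controls were DMSO plus enzyme for no effect and no enzyme for full effect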
Sequence (P35557 whole entry, looked up): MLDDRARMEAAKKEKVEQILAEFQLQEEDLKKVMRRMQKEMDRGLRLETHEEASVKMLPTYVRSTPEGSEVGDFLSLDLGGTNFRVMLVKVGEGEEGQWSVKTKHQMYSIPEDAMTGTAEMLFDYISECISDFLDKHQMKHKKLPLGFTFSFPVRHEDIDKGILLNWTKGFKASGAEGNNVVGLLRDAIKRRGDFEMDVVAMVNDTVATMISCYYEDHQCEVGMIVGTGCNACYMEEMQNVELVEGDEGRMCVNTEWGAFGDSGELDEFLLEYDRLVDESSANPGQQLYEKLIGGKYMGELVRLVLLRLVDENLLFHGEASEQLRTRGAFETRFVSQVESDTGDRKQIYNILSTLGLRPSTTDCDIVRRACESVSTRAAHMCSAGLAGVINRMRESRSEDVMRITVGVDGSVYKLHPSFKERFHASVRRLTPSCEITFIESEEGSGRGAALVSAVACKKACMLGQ
Sequence (Q14397 whole entry, looked up): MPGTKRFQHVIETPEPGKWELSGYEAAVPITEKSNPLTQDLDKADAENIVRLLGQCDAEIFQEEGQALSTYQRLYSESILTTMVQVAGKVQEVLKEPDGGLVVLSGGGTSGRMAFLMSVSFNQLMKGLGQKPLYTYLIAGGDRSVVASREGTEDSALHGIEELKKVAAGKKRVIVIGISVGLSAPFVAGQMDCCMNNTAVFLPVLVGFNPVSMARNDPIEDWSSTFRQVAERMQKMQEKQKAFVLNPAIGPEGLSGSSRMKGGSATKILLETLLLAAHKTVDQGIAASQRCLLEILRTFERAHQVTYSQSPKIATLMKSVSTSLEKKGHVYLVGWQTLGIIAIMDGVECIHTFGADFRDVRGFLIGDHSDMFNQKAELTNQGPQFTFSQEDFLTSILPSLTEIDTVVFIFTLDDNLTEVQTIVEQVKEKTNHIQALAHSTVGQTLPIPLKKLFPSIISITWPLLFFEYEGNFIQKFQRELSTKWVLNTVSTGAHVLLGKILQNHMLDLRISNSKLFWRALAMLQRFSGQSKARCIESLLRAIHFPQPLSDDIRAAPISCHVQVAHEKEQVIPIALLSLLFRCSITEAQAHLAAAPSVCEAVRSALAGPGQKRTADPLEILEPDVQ
Calls of active or inactive are those of the source. The call rests on the fitted dose curve; in most records, active means well fitted curve in the direction sought with a large enough effect; inconclusive means small, poorly fitted or top-dose-only effect, or another doubt; inactive means no such curve, though single readings can be large or run the other way.
endpoint: outcome

compound | obs-value
NC(N)=NC(=O)c1nc(Cl)c(N)nc1N | inactive
Cc1cnc(NC(=O)C2=C(O)c3ccccc3S(=O)(=O)N2C)s1 | inactive
NCCCC(N)(C(=O)O)C(F)F (configuration not stated) | inactive
O=c1n(CCCN2CCN(c3cccc(Cl)c3)CC2)nc2ccccn12 | inactive
NNCCc1ccccc1 | inactive

### Prompt Report outcome, nothing else, for this compound: "Nc1ccc(S(=O)(=O)Nc2ccnn2-c2ccccc2)cc1"
### Response inactive

### Prompt Quote outcome reported for Cc1ccccc1C(OCCN(C)C)c1ccccc1 (configuration not stated) please.
### Response inactive

----------
assay: Quantitative High-Throughput drug screen in 47 multiple myeloma cell lines against the NCATS MIPE library collection: PE2_PLB cell viability assay (AID 1919869); settings: PE2_PLB myeloma cells viability, ATP luminescence, 48 h; series mostly up to 45.8 µM; also: nearly all actives have a fitted effect of over 35% in size; also: potency is read from the fitted curve at half-maximal effect
Records with an inconclusive call do not appear. Activity calls are given as the source filed them. Calls follow the shape of the dose curve; as a rule, active = well fitted cell-killing curve with a large enough effect; inconclusive = small, poorly fitted or top-dose-only effect, or effect the other way; inactive = no such curve, though single readings can be large or run the other way.
endpoint: Potency

compound | obs-value
NC(=O)c1cnccn1 | inactive
Cc1cccc(-c2nn(C(=S)Nc3ccccc3)cc2-c2ccnc3ccccc23)n1 | 7.43 µM (active)
C[C@H](NC(=O)Cc1cc(F)cc(F)c1)C(=O)N[C@@H]1C(=O)N(C)c2ccccc2-c2ccccc21 | 5.9 µM (active)
CC(=O)NC(C)c1ccc(Oc2ccc(OC(C)C)cc2)cc1 (stereo not given) | 16.6 µM (active)

### Prompt Tell me Potency reported for "O=c1n(CCCN2CCN(c3cccc(Cl)c3)CC2)nc2ccccn12"
### Response inactive

### Prompt Give Potency for the following compound: "Cc1cc([C@@H](C)Nc2ccccc2C(=O)O)c2nc(N3CCOCC3)cc(=O)n2c1"
### Response 9.59 µM (active)

### Prompt Please list Potency recorded for the compound "CN1CCN(CCCN2c3ccccc3Sc3ccc(C(F)(F)F)cc32)CC1"
### Response 9.35 µM (active)

### Prompt Find the measured Potency of Oc1ccc(C2CNCCc3c2cc(O)c(O)c3Cl)cc1 (stereo not given) and report it.
### Response inactive

### Prompt Output measured Potency for this item: "O=C(O)CCc1ccc(NCc2cccc(Oc3ccccc3)c2)cc1"
### Response inactive

### Prompt For "COc1ccc(-c2ccc3c(N4CCOCC4)nc(N4C[C@@H](C)O[C@@H](C)C4)nc3n2)cc1CO" , write its Potency.
### Response 0.833 µM (active)

### Prompt Quick one: give measured Potency for "CNC(=O)c1ccc(N2C(=S)N(c3ccc(C#N)c(C(F)(F)F)c3)C(=O)C2(C)C)cc1F"
### Response inactive
